System: T1, human IL-1β (human, UniProt P01584 117-269)
T1 construct: also called hIL-1β; rhIL-1 beta
Method Description: Receptor Binding Assay, IgG; value beside the ABT2 clone
pIC50: −log10 of the molar value.
pIC50 by entry:
Assay Readout: pIC50

1. ABT2-108-538x/ABT1-95-15 huIgG1/K wt (bispecific antibody, V domains shown, hu IgG1/K wt) VH: EVQLLESGGGLVQPGGSLRLSCAASGFTFADEGMMWVRQAPGKGLEWVSRITYSGKNTYYADSVKGRFTISRDNSKNTLYLQMNSLRAEDTAVYYCAKYTGRILGHHLFDYWGQGTLVTVSS VL: DIQMTQSPSSLSASVGDRVTITCRASQPIVRNLRWYQQKPGKAPKLLIYSSSYLEPGVPSRFSGSGSGTDFTLTISSLQPEDFATYHCQQGYRWPVTFGQGTKVEIKR; 10.15
2. IgG pairing ABT1-95-A2 with ABT2-65-166 (bispecific antibody, V domains shown, IgG; also called 1-95-A2 / 2-65-166) VH: EVQLLESGGGLVQPGGSLRLSCAASGFTFEDYQMGWVRQAPGKGLEWVSSISAMGGRTYYADSVKGRFTISRDNSKNTLYLQMNSLRAEDTAVYYCAQNLVRLGRSRWMFDYWGQGTLVTVSS VL: DIQMTQSPSSLSASVGDRVTITCRILQPPGRNLRWYQQKPGKAPKLLIYSKSFLEPGVPSRFSGSGSGTDFTLTISSLQPEDFATYHCQQGYRWPVTFGQGTKVEIKR; 10.14
3. ABT2-65-166/ABT1-95-A3 huIgG1/K wt (bispecific antibody, V domains shown, hu IgG1/K wt; also called 1-95-A3 / 2-65-166) VH: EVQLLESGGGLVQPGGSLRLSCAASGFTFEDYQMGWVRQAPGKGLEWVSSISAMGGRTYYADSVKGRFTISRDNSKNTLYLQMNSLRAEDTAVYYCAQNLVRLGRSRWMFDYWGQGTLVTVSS VL: DIQMTQSPSSLSASVGDRVTITCRASKPGVRNMRWYQQKPGKAPKLLIYSVSYLEPGVPSRFSGSGSGTDFTLTISSLQPEDFATYHCLQGYRWPPTFGQGTKVEIKR; 9.15
4. ABT2-65-166/ABT1-95-A6 hu IgG1/K wt (bispecific antibody, V domains shown, hu IgG1/K wt; also called 1-95-A6 / 2-65-166) VH: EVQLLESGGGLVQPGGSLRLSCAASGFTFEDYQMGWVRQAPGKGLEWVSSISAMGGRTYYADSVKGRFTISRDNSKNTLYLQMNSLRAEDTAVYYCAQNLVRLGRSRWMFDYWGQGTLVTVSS VL: DIQMTQSPSSLSASVGDRVTITCRASKPGVRNMRWYQQKPGKAPKLLIYAKSYLEPGVPSRFSGSGSGTDFTLTISSLQPEDFATYHCKQGYRWPVQFGQGTKVEIKR; 9.27
